procedureSummary: In vivo biodistribution in normal Balb/c mice
Design: species or system mouse
testConditions: female, mouse, heart, iv, total radioactivity; normal Balb/c mice, 2 h p.i., i.v. tail vein, mean ± SD, n = 4-6; read-out: Heart uptake
Where a SMILES comes first, the peptide text is derived from it. [ ]: non-standard residue; d: D form. The star is where a group is joined. DOTA = O=C(O)CN1CCN(CC(=O)O)CCN(CC(=O)*)CCN(CC(=O)O)CC1; βAla = NCCC(=O)O
property: tissue uptake at 2 h (%ID/g)
Just the number please, in %ID/g, no unit attached.

Exercise: May I ask what tissue uptake at 2 h has been recorded for CC[C@H](C)[C@H](NC(=O)[C@H](Cc1ccc(O)cc1)NC(=O)[C@@H](NC(=O)[C@H](CCCNC(=N)N)NC(=O)[C@H](CC(=O)O)NC(=O)CCNC(=O)[C@H](CCCCN)NC(=O)CN1CCN(CC(=O)O)CCN(CC(=O)O)CCN(CC(=O)O)CC1)C(C)C)C(=O)N[C@@H](Cc1c[nH]cn1)C(=O)N1CCC[C@H]1C(=O)N[C@@H](Cc1ccccc1)C(=O)N[C@@H](Cc1c[nH]c2ccccc12)C(=O)N[C@@H](CCCCN)C(=O)N[C@@H](Cc1ccc(O)cc1)C(N)=O [^68Ga-DOTA-AngII peptide, metal not drawn] ({DOTA}-K[βAla]DRVYIHPFWKY-NH2) ?
Key: 0.99

* * *

procedureSummary: In vivo biodistribution in normal Balb/c mice
Set-up: species or system mouse
testConditions: female, mouse, liver, iv, total radioactivity; normal Balb/c mice, 2 h p.i., i.v. tail vein, mean ± SD, n = 4-6; read-out: Liver uptake
Where a SMILES comes first, the peptide text is derived from it. [ ]: non-standard residue; d: D form. The star is where a group is joined. DOTA = O=C(O)CN1CCN(CC(=O)O)CCN(CC(=O)*)CCN(CC(=O)O)CC1; βAla = NCCC(=O)O
property: tissue uptake at 2 h (%ID/g)
Just the number please, in %ID/g, no unit attached.

Exercise: May I ask what tissue uptake at 2 h has been recorded for CC[C@H](C)[C@H](NC(=O)[C@H](Cc1ccc(O)cc1)NC(=O)[C@@H](NC(=O)[C@H](CCCNC(=N)N)NC(=O)[C@H](CC(=O)O)NC(=O)CCNC(=O)[C@H](CCCCN)NC(=O)CN1CCN(CC(=O)O)CCN(CC(=O)O)CCN(CC(=O)O)CC1)C(C)C)C(=O)N[C@@H](Cc1c[nH]cn1)C(=O)N1CCC[C@H]1C(=O)N[C@@H](Cc1ccccc1)C(=O)N[C@@H](Cc1c[nH]c2ccccc12)C(=O)N[C@@H](CCCCN)C(=O)N[C@@H](Cc1ccc(O)cc1)C(N)=O [^68Ga-DOTA-AngII peptide, metal not drawn] ({DOTA}-K[βAla]DRVYIHPFWKY-NH2) ?
Key: 0.48

* * *

procedureSummary: In vivo biodistribution in normal Balb/c mice
Design: species or system mouse
testConditions: female, mouse, urine with bladder contents, iv, total radioactivity; normal Balb/c mice, 45 min p.i., i.v. tail vein, mean ± SD, n = 4-6; read-out: Urine + Bladder (urinary excretion)
Where a SMILES comes first, the peptide text is derived from it. [ ]: non-standard residue; d: D form. The star is where a group is joined. DOTA = O=C(O)CN1CCN(CC(=O)O)CCN(CC(=O)*)CCN(CC(=O)O)CC1; βAla = NCCC(=O)O
property: dose excreted at 0.75 h
Please format your answer as a value with the unit trailing.

Exercise: May I ask what dose excreted at 0.75 h has been recorded for CC[C@H](C)[C@H](NC(=O)[C@H](Cc1ccc(O)cc1)NC(=O)[C@@H](NC(=O)[C@H](CCCNC(=N)N)NC(=O)[C@H](CC(=O)O)NC(=O)CCNC(=O)[C@H](CCCCN)NC(=O)CN1CCN(CC(=O)O)CCN(CC(=O)O)CCN(CC(=O)O)CC1)C(C)C)C(=O)N[C@@H](Cc1c[nH]cn1)C(=O)N1CCC[C@H]1C(=O)N[C@@H](Cc1ccccc1)C(=O)N[C@@H](Cc1c[nH]c2ccccc12)C(=O)N[C@@H](CCCCN)C(=O)N[C@@H](Cc1ccc(O)cc1)C(N)=O [^68Ga-DOTA-AngII peptide, metal not drawn] ({DOTA}-K[βAla]DRVYIHPFWKY-NH2) ?
Key: 67%

* * *

procedureSummary: In vivo tumor targeting and biodistribution in nude mice bearing MDA-MB-231 xenografts
Design: species or system mouse
testConditions: mouse, spleen, total radioactivity; nude mice with MDA-MB-231 xenografts, 45 min p.i., mean ± SD, n = 4-6; read-out: Spleen uptake
Where a SMILES comes first, the peptide text is derived from it. [ ]: non-standard residue; d: D form. The star is where a group is joined. DOTA = O=C(O)CN1CCN(CC(=O)O)CCN(CC(=O)*)CCN(CC(=O)O)CC1; βAla = NCCC(=O)O
property: tissue uptake at 0.75 h (%ID/g)
Just the number please, in %ID/g, no unit attached.

Exercise: May I ask what tissue uptake at 0.75 h has been recorded for CC[C@H](C)[C@H](NC(=O)[C@H](Cc1ccc(O)cc1)NC(=O)[C@@H](NC(=O)[C@H](CCCNC(=N)N)NC(=O)[C@H](CC(=O)O)NC(=O)CCNC(=O)[C@H](CCCCN)NC(=O)CN1CCN(CC(=O)O)CCN(CC(=O)O)CCN(CC(=O)O)CC1)C(C)C)C(=O)N[C@@H](Cc1c[nH]cn1)C(=O)N1CCC[C@H]1C(=O)N[C@@H](Cc1ccccc1)C(=O)N[C@@H](Cc1c[nH]c2ccccc12)C(=O)N[C@@H](CCCCN)C(=O)N[C@@H](Cc1ccc(O)cc1)C(N)=O [^68Ga-DOTA-AngII peptide, metal not drawn] ({DOTA}-K[βAla]DRVYIHPFWKY-NH2) ?
Key: 0.39

* * *

procedureSummary: In vivo biodistribution in normal Balb/c mice
Set-up: species or system mouse
testConditions: female, mouse, muscle/bone, iv, total radioactivity; normal Balb/c mice, 2 h p.i., i.v. tail vein, mean ± SD, n = 4-6; read-out: Muscle/bone uptake
Where a SMILES comes first, the peptide text is derived from it. [ ]: non-standard residue; d: D form. The star is where a group is joined. DOTA = O=C(O)CN1CCN(CC(=O)O)CCN(CC(=O)*)CCN(CC(=O)O)CC1; βAla = NCCC(=O)O
property: tissue uptake at 2 h (%ID/g)
Just the number please, in %ID/g, no unit attached.

Exercise: May I ask what tissue uptake at 2 h has been recorded for CC[C@H](C)[C@H](NC(=O)[C@H](Cc1ccc(O)cc1)NC(=O)[C@@H](NC(=O)[C@H](CCCNC(=N)N)NC(=O)[C@H](CC(=O)O)NC(=O)CCNC(=O)[C@H](CCCCN)NC(=O)CN1CCN(CC(=O)O)CCN(CC(=O)O)CCN(CC(=O)O)CC1)C(C)C)C(=O)N[C@@H](Cc1c[nH]cn1)C(=O)N1CCC[C@H]1C(=O)N[C@@H](Cc1ccccc1)C(=O)N[C@@H](Cc1c[nH]c2ccccc12)C(=O)N[C@@H](CCCCN)C(=O)N[C@@H](Cc1ccc(O)cc1)C(N)=O [^68Ga-DOTA-AngII peptide, metal not drawn] ({DOTA}-K[βAla]DRVYIHPFWKY-NH2) ?
Key: 0.28

* * *

procedureSummary: In vivo tumor targeting and biodistribution in nude mice bearing MDA-MB-231 xenografts
Design: species or system mouse
testConditions: mouse, urine with bladder contents, total radioactivity; nude mice with MDA-MB-231 xenografts, 2 h p.i., mean ± SD, n = 4-6; read-out: Urine + Bladder (urinary excretion)
Where a SMILES comes first, the peptide text is derived from it. [ ]: non-standard residue; d: D form. The star is where a group is joined. DOTA = O=C(O)CN1CCN(CC(=O)O)CCN(CC(=O)*)CCN(CC(=O)O)CC1; βAla = NCCC(=O)O
property: dose excreted at 2 h
Please format your answer as a value with the unit trailing.

Exercise: May I ask what dose excreted at 2 h has been recorded for CC[C@H](C)[C@H](NC(=O)[C@H](Cc1ccc(O)cc1)NC(=O)[C@@H](NC(=O)[C@H](CCCNC(=N)N)NC(=O)[C@H](CC(=O)O)NC(=O)CCNC(=O)[C@H](CCCCN)NC(=O)CN1CCN(CC(=O)O)CCN(CC(=O)O)CCN(CC(=O)O)CC1)C(C)C)C(=O)N[C@@H](Cc1c[nH]cn1)C(=O)N1CCC[C@H]1C(=O)N[C@@H](Cc1ccccc1)C(=O)N[C@@H](Cc1c[nH]c2ccccc12)C(=O)N[C@@H](CCCCN)C(=O)N[C@@H](Cc1ccc(O)cc1)C(N)=O [^68Ga-DOTA-AngII peptide, metal not drawn] ({DOTA}-K[βAla]DRVYIHPFWKY-NH2) ?
Key: 55%
